system: NCI/ADR-RES; test: NCI tumour cell line growth inhibition, 48 h
Calls of active or inactive are those of the source. Cut-off read from the data, not from the text of the source: active = GI50 up to about 1.1 µM and inactive = higher.
Bench note: report the call from active, inactive

**Q:** What was the test verdict on COc1cccc(Nc2nc(-c3cccs3)nc3ccc(Br)cc23)c1 ?
**A:** inactive

**Q:** I would be grateful if you could indicate the recorded call for Cc1[nH]n(C(=N)N)c(=O)c1CCO .
**A:** inactive

* * *

test system: MDA-N; assay: NCI tumour cell line growth inhibition, 48 h
Activity calls are given as the source filed them. Rule as the data show it: active = GI50 up to about 1.1 µM and inactive = higher.
Choose one outcome from this list and give only that: active, inactive

Below, 5 compounds whose answers are already recorded.
Compound	Qualitative Label
COCCOc1nc(-c2ccccc2)nc2ccccc12	inactive
O=Cc1cccc2ccc3ccccc3c12	inactive
CC(NNC(=O)c1cc[n+]([BH2-]C#N)cc1)c1ccccc1 (centres undefined)	inactive
C[N+](C)(C)CC(=O)N/N=C\c1c(O)ccc2ccccc12	inactive
Cc1c2cccc-2c(OCCO)cc2c1[nH]c1ccccc12	inactive

**Q:** Test call for this compound, please: CC(C)=CCOC(=O)C(C)=[N+]=[N-]
**A:** inactive

**Q:** Which result was noted for this compound in the test: Cc1cc(C)nc(NC(=S)Nc2ccccc2Cl)c1
**A:** inactive

**Q:** Which outcome was entered for the compound N=C(N)NC(=N)Nc1ccc(S(N)(=O)=O)cc1 in this test?
**A:** inactive

**Q:** In this assay, the call recorded for COc1ccc2nc3cc([N+](=O)[O-])ccc3c(NNc3ccccc3)c2c1 was what?
**A:** inactive

**Q:** Can you look up the reported call for N#Cc1ccnc(C(=O)N2CCCC2C(=O)O)c1 (centres undefined) for me?
**A:** inactive

**Q:** Record request — test call for COc1cc2nc(-c3c(F)cccc3F)n(Cc3c(F)cccc3F)c2cc1Cc1c(F)cccc1F
**A:** inactive

* * *

test system: OVCAR-3; assay: NCI tumour cell line growth inhibition, 48 h
Calls of active or inactive are those of the source. No stated cut-off is given here; in the data, active = GI50 up to about 1.1 µM and inactive = higher.
Please answer using one outcome listed in active, inactive

Molecule	Qualitative Label
CCN1C(c2ccccc2)=CC(c2ccccc2)(C(Cl)(Cl)Cl)C=C1c1ccccc1	inactive
NC(=O)C1N=NSC1NC(=O)c1ccc([N+](=O)[O-])cc1 (centres undefined)	inactive
COc1cc(/C=C/c2ccc(C)cc2)cc(OC)c1OC	inactive

**Q:** Hello, I am checking results. What call was entered for C=CC(=O)NC(=N)NC#N ?
**A:** inactive

**Q:** Give the logged outcome of this assay for the following molecule: O=C(CCC=C(S(=O)(=O)c1ccccc1)S(=O)(=O)c1ccccc1)c1ccccc1
**A:** inactive

**Q:** In this assay, the call recorded for COc1cc(C2C(Cl)C(=O)N2NC(=O)Cc2ccccc2)cc(Br)c1O (centres undefined) was what?
**A:** inactive

**Q:** Hi team, can someone confirm the assay call for Cc1nc2c(o1)C(=O)c1ccccc1/C2=N/c1ccc(N2CCOCC2)cc1 ?
**A:** inactive

**Q:** What outcome does the record of this test show for CN(/N=C/c1ccnc2ccccc12)c1ccc([N+](=O)[O-])cc1[N+](=O)[O-] ?
**A:** inactive

**Q:** Call for entry COP(=O)(OC)C(Nc1ccc(Cc2ccc(NC(c3ccco3)P(=O)(OC)OC)cc2)cc1)c1ccco1 (centres undefined) :
**A:** inactive

**Q:** Would you mind telling me which call this test gave Oc1cc(O)c2c(c1)OC(c1ccc(O)c(O)c1)C(O)C2c1c(O)cc(O)c2c1OC(c1ccc(O)c(O)c1)C(O)C2 (centres undefined) ?
**A:** inactive

**Q:** Please indicate how the test categorized c1ccc2c3c(ccc2c1)CSCc1ccc2ccccc2c1-3 .
**A:** inactive

* * *

Exercise: for every item that follows, state its recorded GI50.
tested on: NCI-H23; test: NCI tumour cell line growth inhibition, 48 h
The source made the active and inactive calls. Cut-off read from the data, not from the text of the source: active = GI50 up to about 1.1 µM and inactive = higher.

Examples from the recorded data:
Compound	GI50
COc1cc(OC)c2c(c1)OC(c1ccccc1)CC2=O (stereo not given)	> 10 µM (inactive)
COc1c(C)c2nc3ccccc3nc2c2c(O)ccnc12	55.6 µM (inactive)
C/C=C/C=N/N(C(=O)c1cc([N+](=O)[O-])cc([N+](=O)[O-])c1)C1=NN=C(c2ccccc2)C(c2ccccc2)N1 (stereo not given)	26.9 µM (inactive)
Brc1ccc(-c2ccc(-c3ccc(Br)s3)s2)s1	> 100 µM (inactive)
COC(=O)c1ccc(/C=C(\c2ccc([N+](=O)[O-])o2)S(=O)(=O)c2ccc(NC(C)=O)cc2)o1	13.9 µM (inactive)

Count: 5. Required value per item: GI50.
1. COc1ccc(CC2c3cc(OC)c(OC)c(OC)c3CC[N+]2(C)C)cc1Oc1ccc(CC2c3cc4c(c(OC)c3CC[N+]2(C)C)OCO4)cc1 (stereo not given)
2. COc1ccc2nc3cc([N+](=O)[O-])ccc3c(NNc3ccccc3)c2c1
3. COc1ccc(NC(S)=Nc2ccccc2)cc1
4. Oc1c(CN2CCOCC2)ccc2cccnc12
5. Cc1ccc(NC(=O)C(=O)C2C(=O)NC(=O)NC2=O)cc1C

**A:**
1: > 100 µM (inactive); 2: 34.7 µM (inactive); 3: > 100 µM (inactive); 4: > 10 µM (inactive); 5: > 100 µM (inactive)

* * *

system: DU-145; assay: NCI tumour cell line growth inhibition, 48 h
Active and inactive are the calls of the source. No stated cut-off is given here; in the data, active = GI50 up to about 1.1 µM and inactive = higher.
Kindly state GI50 for each of the entries shown.

Compound	GI50
O=C(C#Cc1cn(C2CC(O)C(CO)O2)c(=O)[nH]c1=O)c1ccccc1 (stereo not given)	> 100 µM (inactive)
C[C@H](CCC1=NCCN1)[C@H]1CC[C@H]2[C@@H]3CC[C@@H]4C[C@H](O)CC[C@]4(C)[C@H]3CC[C@]12C	13.9 µM (inactive)
CC1(C)C[C@H]2C=C(C=O)[C@]34C[C@]3(C(=O)OC4O)[C@H]2C1 (stereo not given in full)	2.22 µM (inactive)
COc1cc(C2c3cc4c(cc3OC(NCCc3ccccc3)C2C)OCO4)cc(OC)c1OC (stereo not given)	0.431 µM (active)

Each compound below has a recorded value; state its GI50.
1. CCC(Cc1cnc2nc(N)nc(N)c2n1)c1ccc(C(=O)NC(CCC(=O)O)C(=O)O)cc1 (stereo not given)
2. S=C(NCCc1ccccn1)N/N=C(\c1ccccc1)c1ccccn1
3. Cc1ccc(NCC2CC/C(=C\c3ccc(Cl)cc3)C2=O)cc1 (stereo not given)
4. COc1cc(Nc2cnc3cc(F)c(F)cc3n2)cc(OC)c1
5. N/C(S)=N/N=C/c1ccc(O)cn1
6. COc1c(C)c2nc3ccccc3nc2c2c(O)ccnc12

**A:**
["0.000548 µM (active)", "3.4 µM (inactive)", "30.1 µM (inactive)", "> 100 µM (inactive)", "2.96 µM (inactive)", "34 µM (inactive)"]

* * *

system: IGROV-1; test: NCI tumour cell line growth inhibition, 48 h
Active and inactive are the calls of the source. Rule as the data show it: active = GI50 up to about 1.1 µM and inactive = higher.
I'd be grateful if you could share measured GI50 for these entries.

Your task in this section: give GI50 for each listed record.
1. Cc1cc(S(=O)(=O)Nc2nc(N)nc(N3CCOCC3)n2)c(SCC(=O)O)cc1Cl
2. CC(C)c1ccc(/C=C(\NC(=O)c2ccccc2)c2nc3ccccc3[nH]2)cc1
3. CC(=O)Oc1c(Br)ccc2cc(C(Br)Br)c(C(=O)c3ccccc3)nc12
4. CCCCCCC1CC(=O)C1(Cl)Cl (stereo unspecified)
5. CCC(C)OC(=O)/C(Br)=C1/OC(=O)c2ccccc2-c2ccccc21 (stereo unspecified)
6. Cc1ccc(Nc2nc(C)c(C(=O)CC(=O)C(=O)Nc3ccc(Cl)cc3)s2)cc1
7. C1CCC(OCc2nnn3c2CCC3)OC1 (stereo unspecified)
8. c1ccc2c3c(ccc2c1)CSCc1ccc2ccccc2c1-3

**A:**
> 10 µM (inactive)
73.8 µM (inactive)
29.1 µM (inactive)
25.1 µM (inactive)
> 10 µM (inactive)
> 100 µM (inactive)
> 100 µM (inactive)
> 100 µM (inactive)

Batch lookup, GI50 per entry.
1. O=C1CC23CC(=O)CC2(C1)c1ccccc1C3=O (stereo unspecified)
2. CC(=O)Nc1ccc(C(=O)NN2C(=O)C(Cl)C2c2ccc(Cl)cc2)cc1 (stereo unspecified)
3. CC(=O)OC1[C@H]2c3cc4c(cc3CN3CCC(=C[C@@H]1O)C23)OCO4 (stereo partly specified)

**A:**
1. > 100 µM (inactive)
2. 37.3 µM (inactive)
3. > 100 µM (inactive)

* * *

Kindly state GI50 for each of the entries shown.
test system: HT-29; assay: NCI tumour cell line growth inhibition, 48 h
Calls of active or inactive are those of the source. No stated cut-off is given here; in the data, active = GI50 up to about 1.1 µM and inactive = higher.

Some compounds with known GI50 results, for comparison:
Compound	Readout Type	Result
CC(=O)Nc1ccc(/C=c2\sc3nnc(-c4cccnc4)n3c2=O)cc1	GI50	18.5 µM (inactive)
N/C(S)=N/N=C/c1ccc(O)cn1	GI50	22.3 µM (inactive)
CCCCOC(=O)NC(Nc1ccc(S(N)(=O)=O)cc1)(C(F)(F)F)C(F)(F)F	GI50	> 100 µM (inactive)
C=C(C)C12CC(COC(=O)c3ccccc3)C34OC5(OC1C3C1OC1(CO)C(O)C1(O)C(OC(=O)c3ccccc3)C(C)C(C(C)CCCCCCC5O)C14)O2 (stereo unspecified)	GI50	19.5 µM (inactive)
C[N+]1(C)C/C(=C\c2ccncc2)C(=O)/C(=C/c2ccncc2)C1	GI50	> 100 µM (inactive)

Here is another compound to look at.
**Q:** State the recorded GI50 for this entry: C[N+](C)(C)CC(=O)N/N=C(\Cc1nc2ccc([N+](=O)[O-])cc2nc1O)C(=O)Nc1nc2ccc([N+](=O)[O-])cc2s1
**A:** 45.6 µM (inactive)
